Test system: OVCAR-5 ovarian
PROTOCOL_DETAILS: NCI tumour cell line growth inhibition, 48 h
# GI50 annotations

Consider the following illustrative entries.
CCCN(CCC)c1ccc(/C=N/NC(=O)c2cccnc2)c(C)c1    13.1 µM
ClCc1ccccc1Cn1cnc2nc(Cl)nc(Cl)c21    1.71 µM
CCCCN(CCCC)P(=O)(Oc1ccccc1)Oc1ccccc1    13.3 µM
O=Cc1ccc(-c2ccc(-c3nc4ccccc4s3)cc2)o1    > 100 µM

The record that follows has no GI50 shown yet.
IN: Return GI50 measured with OVCAR-5 ovarian given this compound: c1cc[c]([Ge]([O]c2cccc3cccnc23)([c]2ccccc2)[c]2ccccc2)cc1
OUT: 15.9 µM

###

Tested on: KM12 colon
PROTOCOL_DETAILS: NCI tumour cell line growth inhibition, 48 h
# TGI annotations

Consider the following illustrative entries.
COc1cc2c3c(n(CCCN=[N+]=[N-])c(=O)c2cc1OC)-c1ccc([N+](=O)[O-])cc1C3=O    > 100 µM
CCOC(=O)c1ccc(N2NC(=O)/C(=C/c3ccc([N+](=O)[O-])o3)C2=O)cc1    > 55.3 µM
CC(C)(C)c1cc(C[P+](c2ccccc2)(c2ccccc2)c2ccccc2)cc(C(C)(C)C)c1O    1.51 µM
COc1ccc2c(=O)c3ccoc3[nH]c2c1    > 100 µM

The record that follows has no TGI shown yet.
IN: Entry Cc1nnn(C)c1-c1cnc2c3ccc(C(C)(C)O)cc3n([C@H](c3ccccc3)C3CCOCC3)c2c1 has what TGI?
OUT: > 91.4 µM

###

System: ACHN renal
PROTOCOL_DETAILS: NCI tumour cell line growth inhibition, 48 h
# TGI annotations

Consider the following illustrative entries.
O=C1CCC2(c3ccc(Cl)cc3)Nc3ccccc3N12 (centres undefined)    > 100 µM
CCCC(=O)OCC1OC(n2cc(F)c(=O)[nH]c2=O)C(F)C1O (centres undefined)    > 100 µM
Cc1cccc(N=Nc2c(C)nn(C(=O)CC(=O)Nc3ccc(Cl)cc3)c2C)c1    > 100 µM
O=C1/C(=C/c2ccccc2Cl)COc2ccc(Br)cc21    > 100 µM
CC(C)CCN(CCC(C)C)CC(=O)Nc1ccc(S(=O)(=O)c2ccc(NC(=O)CN(CCC(C)C)CCC(C)C)cc2)cc1    4.68 µM

IN: Entry O=C1OC(c2ccc(O)cc2)(c2ccc(O)cc2)c2ccc(Cl)c3cccc1c23 (tested in a mixture with another compound) has what TGI?
OUT: 39.8 µM

IN: Follow-up entry: COc1cccc([C@@H]2C/C(=N\NC(=O)C(=O)N[C@@H](C)c3ccccc3)c3ccccc3N2)c1
OUT: > 100 µM

IN: Follow-up entry: COc1ccc(C2(Cl)C(Cl)(C(F)(F)F)C2(Cl)C(F)(F)F)cc1 (centres undefined)
OUT: 30.4 µM

IN: Follow-up entry: COc1ccc2c(=O)c3ccoc3[nH]c2c1
OUT: > 100 µM

IN: Follow-up entry: CCCCCSc1ccc2nc(NC(=O)OCC)sc2c1
OUT: > 100 µM

IN: Follow-up entry: O=C1C(Cl)C(c2ccccc2Cl)N1n1cnc2ccccc2c1=O (centres undefined)
OUT: > 100 µM

IN: Follow-up entry: CCC1C(NC(=O)OC)C(=O)N1[C@@H](C)c1ccccc1 (some centres undefined)
OUT: > 100 µM

IN: Follow-up entry: Oc1ccc(Br)cc1C=Nc1c(NC2CCCCC2)oc2ccc(Br)cc12
OUT: > 100 µM
